Listed below: Anti-CD28 Fab signal values for each entry.
target: Anti-CD28 Fab (SEQ ID NOs: 202, 203); experiment: phage binding ELISA on captured Fab;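 note: clonal phage supernatants added briefly to wells pre-incubated with CD28 antigen or with blocking buffer only, then washed, bound phage read by ELISA using HRP-coupled anti-M13 antibody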
Sequence (VH, as listed by the source, chain 1 of 2): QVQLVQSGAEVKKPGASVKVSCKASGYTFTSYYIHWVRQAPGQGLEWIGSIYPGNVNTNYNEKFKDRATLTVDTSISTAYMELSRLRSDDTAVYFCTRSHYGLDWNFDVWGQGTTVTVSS
Sequence (VL, as listed by the source, chain 2 of 2): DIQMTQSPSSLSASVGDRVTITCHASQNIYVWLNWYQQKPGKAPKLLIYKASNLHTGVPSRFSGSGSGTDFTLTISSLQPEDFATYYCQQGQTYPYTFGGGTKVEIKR
Please state the value as a number alone, without comment.

Quick check: Anti-CD28 Fab signal of YCDGHTLEYMWKCL [Phage-95] ?
2.31

And the next one, ECHWSMWAVGHACF [Phage-9] ?
1.77

And the next one, PDCHTILFKPWCVR [Phage-16] ?
1

And the next one, YCAGHSHEYLAKCE [Phage-24] ?
0.86

Data origin, for the record: patent US20260274955A1
